# credit: BindingDB's records for doi:10.1021/acs.jmedchem.0c01826

# Test: Inhibition of P-gp (unknown origin) expressed in MES-SA/DX5 cells assessed as increase in reversal of resistance to paclitaxel-induced cytotoxicity by measuring reduction in paclitaxel EC50 at 50 nM incubated for 72 hrs in presence of paclitaxel by SRB assay (Rvb = 294.6 nM)
pEC50 for assorted compounds
Please treat pEC50 as minus the base-10 logarithm of the molar concentration.

smiles_entry=COc1cc2c(cc1OC)CN(CCc1ccc(-n3nnc(-c4cc(OC)c(OC)cc4NC(=O)c4coc5ccccc5c4=O)n3)cc1)CC2 endpoint=pEC50 measured_number=6.85

Entry `COc1cc2c(cc1OC)CN(CCc1ccc(-n3nnc(-c4cc(OC)c(OC)cc4NC(=O)c4ccc(F)c(F)c4)n3)cc1)CC2` , pEC50 reported as 7.10

Input `COc1cc2c(cc1OC)CN(CCc1ccc(-n3nnc(-c4cc(OC)c(OC)cc4NC(=O)c4cc(=O)c5ccccc5o4)n3)cc1)CC2` . Output pEC50: 8.31

// pEC50 value for `COc1cc2c(cc1OC)CN(CCc1ccc(-n3nnc(-c4cc(OC)c(OC)cc4NC(=O)c4cnc5ccccc5c4)n3)cc1)CC2` : 7.82

So for `COc1cc2c(cc1OC)CN(CCc1ccc(-n3nnc(-c4cc(OC)c(OC)cc4NC(=O)c4cc(=O)c5cc(F)ccc5o4)n3)cc1)CC2` , the logged pEC50 turned out to be 8.12

For this compound ( `COc1cc2c(cc1OC)CN(CCc1ccc(-n3nnc(-c4cc(OC)c(OC)cc4NC(=O)c4nccc5ccccc45)n3)cc1)CC2` ), measured pEC50 is 6.79

// pEC50 lookup, compound = `COc1cc2c(cc1OC)CN(CCc1ccc(-n3nnc(-c4cc(OC)c(OC)cc4NC(=O)c4cccc5cccnc45)n3)cc1)CC2` , result: 7.16

* * *

# Test: Inhibition of P-gp (unknown origin) expressed in MES-SA/DX5 cells assessed as increase in reversal of resistance to paclitaxel-induced cytotoxicity by measuring reduction in paclitaxel EC50 at 50 nM incubated for 72 hrs in presence of paclitaxel by SRB assay (Rvb = 294.6 nM)
EC50 values by entry
Return type: number; implicit unit nM.

Example cases with answers are listed next.
smiles_entry=COc1cc2c(cc1OC)CN(CCc1ccc(-n3nnc(-c4cc(OC)c(OC)cc4NC(=O)c4cc(=O)c5c(OC)cccc5o4)n3)cc1)CC2 endpoint=EC50 measured_number=5.9
smiles_entry=COc1cc2c(cc1OC)CN(CCc1ccc(-n3nnc(-c4cc(OC)c(OC)cc4NC(=O)c4cc5ccccc5cn4)n3)cc1)CC2 endpoint=EC50 measured_number=84
smiles_entry=COc1cc2c(cc1OC)CN(CCc1ccc(-n3nnc(-c4cc(OC)c(OC)cc4NC(=O)c4cncc5ccccc45)n3)cc1)CC2 endpoint=EC50 measured_number=89
smiles_entry=COc1cc2c(cc1OC)CN(CCc1ccc(-n3nnc(-c4cc(OC)c(OC)cc4NC(=O)c4cccnc4)n3)cc1)CC2 endpoint=EC50 measured_number=98
smiles_entry=COc1cc2c(cc1OC)CN(CCc1ccc(-n3nnc(-c4cc(OC)c(OC)cc4NC(=O)c4ccsc4)n3)cc1)CC2 endpoint=EC50 measured_number=66

response.value for `COc1cc2c(cc1OC)CN(CCc1ccc(-n3nnc(-c4cc(OC)c(OC)cc4NC(=O)c4cnccn4)n3)cc1)CC2` (field: EC50) = 98

Lab book: EC50 of `COc1cc2c(cc1OC)CN(CCc1ccc(-n3nnc(-c4cc(OC)c(OC)cc4NC(=O)c4ccc5ccccc5c4)n3)cc1)CC2` noted as 113

Lab note: `COc1cc2c(cc1OC)CN(CCc1ccc(-n3nnc(-c4cc(OC)c(OC)cc4NC(=O)c4cc(=O)c5cc(C)ccc5o4)n3)cc1)CC2` gave EC50 of 4

* * *

# Test: Inhibition of P-gp (unknown origin) expressed in MES-SA/DX5 cells assessed as increase in reversal of resistance to paclitaxel-induced cytotoxicity by measuring reduction in paclitaxel EC50 at 50 nM incubated for 72 hrs in presence of paclitaxel by SRB assay (Rvb = 294.6 nM)
Endpoint: EC50

Below, each entry is followed by its recorded EC50 result.
smiles_entry=COc1cc2c(cc1OC)CN(CCc1ccc(-n3nnc(-c4cc(OC)c(OC)cc4NC(=O)c4ccc5ccccc5n4)n3)cc1)CC2 endpoint=EC50 result="110 nM"
smiles_entry=COc1cc2c(cc1OC)CN(CCc1ccc(-n3nnc(-c4cc(OC)c(OC)cc4NC(=O)c4ccccc4)n3)cc1)CC2 endpoint=EC50 result="87 nM"

# EC50 (molecule: `COc1cc2c(cc1OC)CN(CCc1ccc(-n3nnc(-c4cc(OC)c(OC)cc4NC(=O)c4ccoc4)n3)cc1)CC2` ) is 84 nM
